pIC50 reference
# System: human breast cancer MCF-7 cells
# ASSAY TEXT: MTT cytotoxicity assay, MCF-7
# Format: cell-based
# TEST PARAMETERS: MCF7, 72 h, n = 3, ± SD, read-out: Adhesive Cell Cultures, IC50 MCF-7
# Experimental: All newly synthesized PPA derivatives 1–8 were evaluated for their anti-proliferative activity against human breast cancer MCF-7, human prostate adenocarcinoma PC-3, human colorectal cancer HCT-116, human lung cancer A549, human chronic myelogenous leukemia K562, human acute monocytic leukemia THP-1, human multiple myeloma RPMI8226, human acute T-cell leukemia Jurkat, human multiple myeloma NCI-H929, and human embryonic fibroblasts HEF cell lines by MTT assays. […]
The value called pIC50 is obtained by taking minus log10 of the concentration in mol/L.

# annotated cases, reported pIC50 shown
C=C1C2=C(C(=O)N1OC)[C@H](O)[C@@](C)(O)[C@H](CCCCC)O2 [PPA, phaeosphaeride A]; 4.69
C=C1C2=C(C(=O)N1OC)[C@@H](N1CCC(N3CCCC3)CC1)[C@@](C)(O)[C@H](CCCCC)O2; 5.74
C=C1C2=C(C(=O)N1OC)[C@@H](N1CCCC1)[C@@](C)(O)[C@H](CCCCC)O2; 5.49
COc1cc([C@@H]2c3cc4c(cc3[C@@H](O[C@@H]3O[C@@H]5CO[C@@H](C)O[C@H]5[C@H](O)[C@H]3O)[C@H]3COC(=O)[C@H]23)OCO4)cc(OC)c1O [Etoposide, etoposide, reference compound]; 5.02
C=CCN[C@@H]1C2=C(O[C@@H](CCCCC)[C@]1(C)O)C(=C)N(OC)C2=O; 5.38
C=C1C2=C(C(=O)N1OC)[C@@H](NCCO)[C@@](C)(O)[C@H](CCCCC)O2; 5.49
C=C1C2=C(C(=O)N1OC)[C@@H](NC)[C@@](C)(O)[C@H](CCCCC)O2; 5.39
C=C1C2=C(C(=O)N1OC)[C@@H](NCc1ccccc1)[C@@](C)(O)[C@H](CCCCC)O2; 4.45

Noted for C=C1C2=C(C(=O)N1OC)[C@@H](NCCCCO)[C@@](C)(O)[C@H](CCCCC)O2 : its pIC50 reads 5.52

Noted for C=C1C2=C(C(=O)N1OC)[C@@H](N1CCC(O)CC1)[C@@](C)(O)[C@H](CCCCC)O2 : its pIC50 reads 5.49

Hello, the source for this data is paper PMC6278656, in case you need it.
